What inhibition was measured for each of the following?
System: Saccharomyces cerevisiae
Assay: Inhibition of Saccharomyces cerevisiae alpha-glucosidase using p-nitrophenyl-alpha-o-D-glucopyranoside as substrate at 100 uM measured for 10 mins by microplate assay relative to control

Solved cases (4 shown):
Entry Smiles	Target Under Test	inhibition
O=S(=O)(NCCc1cn(S(=O)(=O)c2ccc(F)cc2C(F)(F)F)cn1)c1ccc(F)cc1C(F)(F)F	Saccharomyces cerevisiae	> 50%
O=S(=O)(NCCc1cn(S(=O)(=O)c2c(F)c(F)c(F)c(F)c2F)cn1)c1c(F)c(F)c(F)c(F)c1F	Saccharomyces cerevisiae	> 50%
O=S(=O)(NCCc1c[nH]cn1)c1ccc(F)cc1C(F)(F)F	Saccharomyces cerevisiae	< 50%
O=S(=O)(NCCc1cn(S(=O)(=O)c2ccc(C(F)(F)F)cc2)cn1)c1ccc(C(F)(F)F)cc1	Saccharomyces cerevisiae	> 50%

Please report inhibition for every entry that follows.
1. O=S(=O)(NCCc1c[nH]cn1)c1ccc(C(F)(F)F)cc1
2. Cc1ccc(S(=O)(=O)NCCc2cn(S(=O)(=O)c3ccc(C)cc3)cn2)cc1

1: < 50%; 2: > 50%

Parameters: items (list). Returns: inhibition for each item.
1. O=S(=O)(NCCc1c[nH]cn1)c1ccccc1
2. O=S(=O)(NCCc1cn(S(=O)(=O)c2ccccc2)cn1)c1ccccc1
3. COc1ccc(S(=O)(=O)NCCc2cn(S(=O)(=O)c3ccc(OC)c(F)c3)cn2)cc1F
4. Cc1ccc(S(=O)(=O)NCCc2c[nH]cn2)cc1
5. O=S(=O)(NCCc1c[nH]cn1)c1cc(F)c(F)c(F)c1
6. O=S(=O)(NCCc1cn(S(=O)(=O)c2ccc(F)cc2)cn1)c1ccc(F)cc1

1: < 50%; 2: > 50%; 3: > 50%; 4: < 50%; 5: < 50%; 6: > 50%

I need inhibition for every entry listed below, if you could help.
1. O=S(=O)(NCCc1cn(S(=O)(=O)c2ccc(F)cc2Cl)cn1)c1ccc(F)cc1Cl
2. Cc1ccc(F)c(S(=O)(=O)NCCc2cn(S(=O)(=O)c3cc(C)ccc3F)cn2)c1
3. COc1ccc(S(=O)(=O)NCCc2c[nH]cn2)cc1F
4. O=S(=O)(NCCc1c[nH]cn1)c1ccc(F)cc1

1. > 50%
2. > 50%
3. < 50%
4. < 50%

State the recorded inhibition for every item in the following list.
1. Cc1ccc(F)c(S(=O)(=O)NCCc2c[nH]cn2)c1
2. O=S(=O)(NCCc1cn(S(=O)(=O)c2cc(F)c(F)c(F)c2)cn1)c1cc(F)c(F)c(F)c1

1: < 50%; 2: > 50%

---

Experiment: Inhibition of almonds beta-glucosidase using p-nitrophenyl-beta-o-D-glucopyranoside as substrate measured for 10 mins
Parameters: species or system Prunus dulcis
Reported Metric: pIC50
Numbers only, as −log10 of the molar value.

For OC[C@H]1NC[C@H](O)[C@@H](O)[C@@H]1O [DUVOGLUSTAT] , what is its reported pIC50? 4.19
